Values were extracted from the Human Domainome abundance scans (Beltran et al. 2025).

List of abundance fitness values.
B1: POU domain, class 2, transcription factor 2, residues 200 to 269; numbered along this chain, P09086 (parent)
chain: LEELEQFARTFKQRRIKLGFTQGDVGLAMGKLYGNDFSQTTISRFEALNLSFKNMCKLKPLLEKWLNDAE

# Variants of: B1
# measurement notes: abundance fitness (aPCA) (normalised: wild type 0, dead -1); higher = more abundant; growth selection in yeast, the domain comes from the species named
# conditions: Homo sapiens

sequence variant: C56N
abundance fitness: -0.064

sequence variant: D24V
abundance fitness: -0.169

sequence variant: R15T
abundance fitness: -1.01

sequence variant: F7T
abundance fitness: -0.281

sequence variant: R14E
abundance fitness: -0.138

sequence variant: A47M
abundance fitness: -0.036

sequence variant: F45C
abundance fitness: -0.752

sequence variant: N54P
abundance fitness: -0.264

sequence variant: Q39V
abundance fitness: -0.002

sequence variant: K59V
abundance fitness: -0.031

sequence variant: N54R
abundance fitness: -0.005

sequence variant: K53N
abundance fitness: -0.236

sequence variant: L66D
abundance fitness: -0.358

sequence variant: Q22V
abundance fitness: -0.059

sequence variant: F52M
abundance fitness: -0.105

sequence variant: E46C
abundance fitness: -1.06

sequence variant: G19R
abundance fitness: -0.128

sequence variant: L66C
abundance fitness: 0.025

sequence variant: G34I
abundance fitness: -0.248

sequence variant: N35T
abundance fitness: -0.203

sequence variant: I16T
abundance fitness: 0.017

sequence variant: R44L
abundance fitness: -0.025
